Tested on: Mitogen-activated protein kinase MPK1 phosphorylation (Cryptococcus neoformans H99)
test_method_notes: inhibition of Mpk1 phosphorylation in C. neoformans, mechanism study for C. neoformans antifungal project, cell-based, single point, dry powder, imaging (AID 743392)
test_settings: C. neoformans H99, pMpk1 Western blot, 2 h; concentration not given here
The source made the active and inactive calls.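 Rule for the calls: active = phosphorylated Mpk1, a fungal stress kinase, cut by at least 20% below its untreated level on western blot; inactive = the rest.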
Outcome codes: 1 (active), 0 (inactive)

S=c1[nH]c2ccccc2n1CCOc1ccccc1Cl = 1
Cc1ccc(C(C)C)c(OCCn2c(=S)[nH]c3ccccc32)c1 = 1
CC(C)c1ccc(OCCn2c(=S)[nH]c3ccccc32)cc1 = 1
Fc1cccc(OCCn2c(=S)[nH]c3ccccc32)c1 = 1
Cc1cccc(OCCn2c(=S)[nH]c3c(F)cccc32)c1 = 0
